experiment.description: qHTS for induction of synthetic lethality in tumor cells producing 2HG: qHTS for the HT-1080-IDH1KD cell line; also: potency is read from the fitted curve at half-maximal effect
condition.description: HT-1080 IDH1 knockdown viability, ATP luminescence, 48 h; series mostly up to 46.1 µM
In all, about 360,000 compounds went through this assay and about 7,500 (2.1%) were called active. Roughly 8% stayed inconclusive and do not appear here. The sample holds actives, similar compounds and a random draw of the others, so the mix is not that of the screen.
assay.metric: Potency

{"columns": ["molecule", "assay.metric", "observed.value"],
 "data": [
  ["COc1ccc(CN(C)C(=O)CC(c2ccccc2)c2ccccc2)cc1", "Potency", "inactive"],
  ["CCS(=O)(=O)Nc1ccc(C2=NN(C(C)=O)C(c3cccs3)C2)cc1 (stereo not drawn)", "Potency", "16.4 µM (active)"],
  ["CSc1ccc(CNC(=O)C2(C)CCCN2C)cc1 (stereo not drawn)", "Potency", "inactive"],
  ["CCOC(=O)C1=C(C)Nc2nc3ccccc3n2C1c1cccs1 (stereo not drawn)", "Potency", "inactive"],
  ["CC(C)(C)CC(C)(C)NCC(O)COCCOc1ccc(Br)cc1 (stereo not drawn)", "Potency", "20.6 µM (active)"],
  ["COc1ccc(COC(=O)NC(C(=O)O)c2ccccc2)cc1 (stereo not drawn)", "Potency", "inactive"],
  ["O=C1CC(c2ccccc2)=NN1c1ccc([N+](=O)[O-])cc1", "Potency", "20.6 µM (active)"],
  ["CCCNC(=O)C1(C)CCN(Cc2ccc(Cl)c(Cl)c2)C1 (stereo not drawn)", "Potency", "inactive"],
  ["COc1ccccc1NC(=O)C1=C(C)Nc2nc3ccccc3n2C1c1cccs1 (stereo not drawn)", "Potency", "5.17 µM (active)"],
  ["COc1ccc(C2=NN(c3nc4ccccc4s3)C(=O)C2)cc1", "Potency", "inactive"],
  ["CCOC(=O)C1=C(C)N=c2s/c(=C\\C(=O)OC)c(=O)n2C1c1ccc(OC)cc1 (stereo not drawn)", "Potency", "inactive"],
  ["CC(=O)Nc1c(-c2ccc(C)cc2)nc2ccc(Cl)cn12", "Potency", "inactive"],
  ["OC(COc1ccc(Br)cc1)CN1CCCC1 (stereo not drawn)", "Potency", "inactive"],
  ["CS(=O)(=O)Nc1cccc(C2=NN(C(=O)c3cccc(F)c3)C(c3cccs3)C2)c1 (stereo not drawn)", "Potency", "inactive"],
  ["O=C1CCCC2=C1C(c1ccccc1)n1c(s/c(=C/c3cccc(F)c3)c1=O)=N2 (stereo not drawn)", "Potency", "inactive"],
  ["O=C1OCCC1=COCCCCOC=C1CCOC1=O", "Potency", "inactive"],
  ["CCC(CC)C(C(=O)NC1CCCC1)N1CCN(c2cc(C)nc3ccccc23)CC1 (stereo not drawn)", "Potency", "inactive"],
  ["Cc1nnc(NC(=O)c2ccc3nccnc3c2)s1", "Potency", "inactive"],
  ["O=C(Nc1ccc(OCCO)cc1)c1csc([C@H]2C[C@H](O)[C@@H](CO)O2)n1", "Potency", "inactive"],
  ["O=c1c2sccc2nc(SCc2cc(=O)n3ccccc3n2)n1-c1ccc(Br)cc1", "Potency", "inactive"],
  ["COCCSc1nnc(NC(=O)CCS(=O)(=O)Cc2ccccc2)s1", "Potency", "inactive"],
  ["CSc1nnc(NC(=O)c2nc(S(=O)(=O)Cc3ccc(C)cc3)ncc2Cl)s1", "Potency", "6.51 µM (active)"],
  ["Cc1ccccc1-c1nc(NC(C)C)nc2cc(-c3ccccc3)sc12", "Potency", "inactive"]
]}

---

experiment.description: qHTS for induction of synthetic lethality in tumor cells producing 2HG: qHTS for the HT-1080-IDH1KD cell line
condition.description: HT-1080 IDH1 knockdown viability, ATP luminescence, 48 h; series mostly up to 46.1 µM
Screen size: about 360,000 compounds; about 7,500 (2.1%) were called active. Another 8% or so got no clear call; they are omitted. The call rests on the fitted dose curve; in most records, active means well fitted cell-killing curve with a large enough effect; inconclusive means small, poorly fitted or top-dose-only effect, or effect the other way, or another doubt; inactive means no such curve, though single readings can be large or run the other way. Many of the other results were omitted from the sample, so actives are more common in it than they were.
Labels: yes (1) for active, no (0) for inactive

{"columns": ["compound", "category.label"],
 "data": [
  ["COc1ccc(/C=N/Nc2ncnc3sc4c(c23)CCCC4)cc1O", "yes (1)"],
  ["Clc1cccc(N=C2NN=C(c3ccc4c(c3)OCCO4)CS2)c1", "yes (1)"],
  ["Cc1noc(C)c1-c1ccc(C(=O)NCc2ccncc2)c2occc12", "no (0)"],
  ["CC(C)CNC(=O)C1(C)CCCN1C(=O)CSc1ccccc1 (stereo not drawn)", "no (0)"],
  ["O=C(O)c1ccc(NC(=O)c2cn(-c3ccccc3)nc2-c2ccc(Cl)cc2)cc1", "yes (1)"],
  ["C[C@H](NC(=O)[C@@H]1CCCN1C(=O)[C@@H]1CCCN1C(=O)c1ccccc1)c1ccccc1", "no (0)"],
  ["Nc1nc(NCC2CCCO2)nc(Nc2ccccc2F)c1[N+](=O)[O-] (stereo not drawn)", "no (0)"],
  ["C=C1C(=O)OC2C1CCC(C)=CCCC1(C)OC21 (stereo not drawn)", "yes (1)"],
  ["O=C(NCc1ccccn1)[C@@H]1CCCN1C(=O)[C@@H]1CCCN1C(=O)c1ccccc1", "no (0)"],
  ["CN(c1ccccc1)S(=O)(=O)c1ccc(Cl)c(C(=O)NCCc2c[nH]c3ccccc23)c1", "no (0)"],
  ["CN(C)c1nc(=Nc2cccc(Cl)c2)ss1", "no (0)"],
  ["CC(C)(C)C1CCC(=O)N2CCC[C@]2(c2ccccc2)C1 (stereo partly drawn)", "no (0)"],
  ["Cc1ccc(-c2nn(-c3ccccc3)cc2C(=O)NCCCN2CCCC2=O)cc1", "no (0)"],
  ["Cc1ccc(NC(=O)COC(=O)CN2CCSC2=O)cc1F", "no (0)"],
  ["O=C(OCc1ccccc1)N1CCC2CC1c1ccc(-c3ccc4c(c3)OCO4)cc12 (stereo not drawn)", "no (0)"],
  ["CC(=O)OCC(C)n1c(=O)c2ccccc2n1C(C)=O (stereo not drawn)", "no (0)"],
  ["COc1ccc(NC(=O)CCCNC(=O)Cn2cnc3sc4c(c3c2=O)CCCC4)cc1OC", "no (0)"],
  ["C[C@H](CO)N1C[C@H](C)[C@@H](CN(C)C(=O)C2CCCCC2)OCc2cnnn2CCCC1=O", "no (0)"],
  ["COc1ccc(-c2c(C)cc3oc(=O)cc(-c4ccccc4)c3c2C)cc1F", "no (0)"],
  ["CN(C)CCNC(=O)c1ccc(Cl)c2cc3ccccc3nc12", "yes (1)"],
  ["N#Cc1c(NC(=O)C2CCCO2)sc2c1CCCCC2 (stereo not drawn)", "no (0)"],
  ["CC(=O)N1CCN(Cc2cc(=O)oc3cc(C)ccc23)CC1", "no (0)"],
  ["Nc1nc(Nc2ccccc2F)nc(NC2CCCCC2)c1[N+](=O)[O-]", "yes (1)"],
  ["C=CCNc1nc(N)c([N+](=O)[O-])c(NC2CCCCC2)n1", "no (0)"],
  ["O=C(C[C@H]1C[C@H]2c3cc(NS(=O)(=O)c4ccc(F)cc4)ccc3O[C@H]2[C@H](CO)O1)NCc1cc(F)ccc1F", "no (0)"],
  ["COc1ccc(-c2[nH][nH]c(=O)c2NC(=O)c2ccc([N+](=O)[O-])cc2)cc1", "no (0)"],
  ["N#Cc1c(NC(=O)CCCl)sc2c1CCCCC2", "yes (1)"],
  ["CCc1nc(C)cn1S(=O)(=O)c1cc([N+](=O)[O-])ccc1Cl", "yes (1)"],
  ["CCc1nc2c(=O)[nH]cnc2o1", "no (0)"],
  ["CCNC(=O)C1(C)CCCN(C(=O)c2ccc3ccccc3n2)C1 (stereo not drawn)", "no (0)"],
  ["CN(C)CCNC(=O)Nc1cccc(Cl)c1Cl", "no (0)"],
  ["COC(=O)[C@]12CCCCC=C1N(Cc1ccco1)C(=O)[C@H](CC(=O)NCC1CCCCC1)C2", "no (0)"],
  ["O=C(CO/N=C/c1ccccc1O)NNC(=O)c1ccccc1Cl", "no (0)"],
  ["Nc1ncnc2c1ncn2[C@@H]1O[C@H](C(=O)NS(=O)(=O)c2c(Cl)nc3sccn23)[C@@H](O)[C@H]1O", "no (0)"],
  ["CC(C)c1cc(Cn2c3ccccc3c(=O)n2C(C)Cn2cc(C3CC3)nn2)on1 (stereo not drawn)", "no (0)"],
  ["CC(C)c1nccn1S(=O)(=O)c1cc([N+](=O)[O-])ccc1Cl", "no (0)"],
  ["O=C(Nc1ccc(Br)cn1)c1ccc([N+](=O)[O-])o1", "yes (1)"],
  ["CCc1nc(C)cn1S(=O)(=O)c1cc(OC)c(C)cc1C", "no (0)"],
  ["CCCNC(=O)C1(C)CCN(C(=O)c2ccc(F)cc2Cl)C1 (stereo not drawn)", "no (0)"],
  ["CC1(C(=O)NS(=O)(=O)c2cccc(F)c2)CCN1C(=O)c1cccc2ccccc12 (stereo not drawn)", "no (0)"],
  ["CCOC(=O)c1cc2cc(OC)ccc2n1C1CCN(C)CC1", "no (0)"],
  ["CCCCNC(=O)C[C@@H]1C[C@@]2(C(=O)OC)CC(C)(C)CC=C2N(Cc2ccco2)C1=O", "no (0)"],
  ["CCCCC[C@H](C)N1C[C@@H](COCc2ccccc2)Oc2cc(N3CC[C@@H](N(C)C)C3)ccc2S1(=O)=O", "yes (1)"]
]}
